# experimentalTarget: Aspartate--tRNA(Asp/Asn) ligase (Mycobacterium tuberculosis (strain ATCC 25618 / H37Rv)) (UniProt P9WFW3); further: in the data most compounds retested in dose-response had high values
# Sequence (P9WFW3 whole entry): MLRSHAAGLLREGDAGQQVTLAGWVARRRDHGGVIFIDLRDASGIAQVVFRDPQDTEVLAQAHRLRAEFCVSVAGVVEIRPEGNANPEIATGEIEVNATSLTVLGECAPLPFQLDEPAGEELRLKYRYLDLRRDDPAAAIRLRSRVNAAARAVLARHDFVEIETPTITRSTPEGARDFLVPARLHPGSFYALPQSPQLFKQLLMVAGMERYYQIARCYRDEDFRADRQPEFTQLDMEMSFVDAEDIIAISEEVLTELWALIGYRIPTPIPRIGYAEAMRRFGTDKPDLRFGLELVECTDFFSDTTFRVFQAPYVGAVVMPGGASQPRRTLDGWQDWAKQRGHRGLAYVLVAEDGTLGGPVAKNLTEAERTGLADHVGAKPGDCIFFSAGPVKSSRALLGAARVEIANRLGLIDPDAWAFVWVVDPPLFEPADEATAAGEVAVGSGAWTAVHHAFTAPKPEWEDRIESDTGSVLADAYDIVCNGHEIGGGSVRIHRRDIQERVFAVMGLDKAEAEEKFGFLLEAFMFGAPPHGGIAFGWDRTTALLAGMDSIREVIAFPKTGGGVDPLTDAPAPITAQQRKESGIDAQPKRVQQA
# assayRemarks: Assay for Asp RNA synthetase-1 from Mycobacterium tuberculosis
# Type: functional
# Set-up: scale not given: direction of the effect not stated beside the values
# runParameters: 30 µM
Would you kindly list Percent Effect for each of these compounds?
Give bare numbers, in %.

// worked examples, Percent Effect included
- Cc1nn(C)c(C)c1C1COCCN1C(=O)c1n[nH]c2ccccc12 (configuration not stated): -1.46
- Cc1nn(C)c(C)c1CNCc1ccnc(N2CCOCC2)c1: -2.46
- CC(c1ccccc1)n1c(SCC(=O)O)nnc1-c1ccccc1Cl (configuration not stated): 1
- Cc1ccc(CNCc2ccc(-n3nc(C)cc3C)nc2)cc1: 1.23
- CCN(C)S(=O)(=O)N(CC)Cc1ccc2c(c1)OCO2: 3.49

Hey, quick one: what's Percent Effect for each of these?
1. COCCNC(=O)C(C)n1cc(Br)cn1 (configuration not stated)
2. CNC(=O)c1cnc(/C=C/c2ccc(OC)c(O)c2)s1
3. CCCC(C)CN1CCC(n2cc(CCCO)nn2)CC1 (configuration not stated)
4. CCCN(C(=O)COC)c1nc2c(s1)CCc1c-2cnn1C
5. Cc1nn(C)c(C)c1CC(=O)N1CCC(Nc2cccnn2)CC1
6. COCc1ccccc1C(=O)N1CCCC(n2nc(C)cc2C)C1 (configuration not stated)
7. CCCc1noc(CN(C)C(=O)C2COc3ccccc3C2)n1 (configuration not stated)

result:
1. 9.87
2. 1.65
3. 1.56
4. -1.78
5. -1.68
6. -2.97
7. 1.75

---

# experimentalTarget: Shiga toxin 2 (Escherichia coli O157:H7) (UniProt P09385+P09386)
# assayRemarks: E. coli 0.157:H7 Shiga Toxin SOP - stx2 screening assay
# Format: functional
# Design: scale not given: direction of the effect not stated beside the values
# runParameters: 30 µM
measuredMetric: Percent Effect (%)
Answers are plain numbers, in %.

// worked examples, Percent Effect included
- CNS(=O)(=O)Cc1ccc(CNc2cncc(-n3cccn3)n2)cc1: -15.6
- CC(C)(C)NC(=O)C1CSCN1S(=O)(=O)c1ccc(F)cc1 (centres undefined): 1.58
- O=C1CC2(CCN(S(=O)(=O)C3CC3)C2)CN1c1cncnc1 (centres undefined): -33.9
- COc1ccc(CNC(=O)CNc2cc3c(cc2Cl)OCCCO3)cc1: 0.898
- O=C(CCc1ccccc1)C1CCCN(C(=O)c2ncc(F)cc2F)C1 (centres undefined): 2.26

Hey, quick one: what's Percent Effect for each of these?
1. Cc1csc(CNC(=O)N(C)Cc2cnn(C)c2)n1
2. Cc1nn(C)c(C)c1NC(=O)CN1CCCC1c1noc(C2CC2)n1 (centres undefined)
3. Cn1cccc1C(=O)N1CCCC2(CCCN2Cc2cccnc2)C1 (centres undefined)
4. CCCS(=O)(=O)N1CCC2(CN(c3cnn(C)c3)C(=O)CN2C)C1 (centres undefined)
5. CCc1nccn1-c1cncc(C2CCCN2Cc2cccnc2)n1 (centres undefined)

result:
-1.35
-27.4
19.4
-13.9
-37.2

Hey, quick one: what's Percent Effect for each of these?
1. Fc1ccc(CNCC2OCCc3cn(CC4CC4)nc32)cc1 (centres undefined)
2. CC(C)N1CCCC2(CCN(C(=O)CCCn3cncn3)C2)C1=O (centres undefined)

result:
[-6.8, 11.1]

Hey, quick one: what's Percent Effect for each of these?
1. CCc1ncc2c(n1)CN(Cc1nc(C)c(C)o1)CC2
2. O=C1CCCCN1c1cccc(CNC2CCCC2)c1
3. CCN(CC)C(=O)C(c1ccccc1)N1CCn2c(C)nnc2C1 (centres undefined)

result:
1. -23.6
2. 18
3. 4.2

All figures here come from ChEMBL document CHEMBL3988442.
